# measurement.target: Beta-secretase 1 (Homo sapiens, UniProt P56817)
# Sequence (P56817 whole entry): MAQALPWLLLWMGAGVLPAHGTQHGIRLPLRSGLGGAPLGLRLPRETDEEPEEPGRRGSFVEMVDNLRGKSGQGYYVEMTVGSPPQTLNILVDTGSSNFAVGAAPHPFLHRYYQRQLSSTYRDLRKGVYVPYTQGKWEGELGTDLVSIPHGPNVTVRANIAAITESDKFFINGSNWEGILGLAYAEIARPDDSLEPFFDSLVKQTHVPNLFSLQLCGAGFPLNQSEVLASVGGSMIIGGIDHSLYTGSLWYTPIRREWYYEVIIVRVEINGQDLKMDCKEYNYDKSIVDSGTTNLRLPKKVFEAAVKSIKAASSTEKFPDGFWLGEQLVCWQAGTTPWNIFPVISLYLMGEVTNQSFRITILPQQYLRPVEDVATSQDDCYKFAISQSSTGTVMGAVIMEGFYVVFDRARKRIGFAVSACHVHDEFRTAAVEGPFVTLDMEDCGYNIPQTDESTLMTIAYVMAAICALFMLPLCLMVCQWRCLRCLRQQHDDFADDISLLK
# assay.comment: Inhibition of recombinant human BACE1 using fluorogenic 7-methoxycoumarin-4-yl)acetyl-Ser-Glu-Val-Asn-Leu-Asp-Ala-Glu-Phe-ArgLys(2, 4-dinitrophenyl)-Arg-Arg-NH2 as substrate measured every 5 mins for 120 mins by CFA
In this section, each of the molecules is paired with its reported pIC50.
Scale: pIC50 equals -log10([C]), with [C] in mol/L.

-- ask Reported pIC50 for CC1c2cc(Oc3ccccc3)ccc2N=C(N)N1CCCC(=O)N(Cc1cnn(C)c1)C1CCCCC1 (configuration not stated) : what is it?
-- reply 6.42

-- ask What pIC50 value was documented for this molecule, Cn1cc(CN(C(=O)CCCN2C(N)=Nc3ccc(Oc4ccccc4)cc3C2CC2CCCCC2)C2CCCCC2)cn1 (configuration not stated) ?
-- reply 6.31
